molecular target: GSK-3β (Homo sapiens, UniProt P49841); experiment: Assay for GSK-3β inhibiting activity (32P-ATP, phospho-CREB peptide substrate, filter paper, CPM); assay type: biochemical; conditions: GSK-3β inhibiting activity; 100 nM GSK-3β protein, 100 μM phospho-CREB peptide, 100 μM ATP, 30° C. for 1 hour; read-out: IC50
Sequence (P49841 whole entry): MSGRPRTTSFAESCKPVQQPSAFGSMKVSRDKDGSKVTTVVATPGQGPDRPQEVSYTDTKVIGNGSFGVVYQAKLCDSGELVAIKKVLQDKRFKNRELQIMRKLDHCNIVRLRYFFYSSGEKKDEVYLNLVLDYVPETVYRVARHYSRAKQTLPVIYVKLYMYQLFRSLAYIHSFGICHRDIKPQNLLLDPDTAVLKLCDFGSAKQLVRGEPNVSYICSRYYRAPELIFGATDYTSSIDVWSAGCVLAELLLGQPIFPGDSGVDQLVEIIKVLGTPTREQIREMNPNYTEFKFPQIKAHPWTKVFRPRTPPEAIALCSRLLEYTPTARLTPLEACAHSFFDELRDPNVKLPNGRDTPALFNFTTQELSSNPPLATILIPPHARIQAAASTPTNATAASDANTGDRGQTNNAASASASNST
Note to self: class = bucket of IC50, per label 0: < 10 nM; label 1: ≥ 10 nM and < 200 nM; label 2: ≥ 200 nM

Reference set (2 entries):
>  <COMPOUND>
O=C(NCCc1ccccc1O)c1ccc(O)c2[nH]c(-c3ccc(F)cc3)nc12

>  <ASSIGNED LABEL>
label 0

$$$$
>  <COMPOUND>
O=C(NCCc1ccc([N+](=O)[O-])cc1)c1ccc(O)c2[nH]c(-c3ccccc3)nc12

>  <ASSIGNED LABEL>
label 1

$$$$

// query Record Cc1nccn1CCCNC(=O)c1ccc(O)c2[nH]c(-c3ccc(F)cc3)nc12 — which class?
// result label 0

// query Record Nc1ccc(CCNC(=O)c2ccc(O)c3[nH]c(-c4ccc(Cl)cc4)nc23)cc1 [Compound 73] — which class?
// result label 2

// query Record CS(=O)(=O)NCCc1ccc(NC(=O)c2ccc(O)c3[nH]c(-c4ccc(F)c(Cl)c4)nc23)cc1 — which class?
// result label 1

// query Record Cc1ccc(S(=O)(=O)Nc2ccc(CCNC(=O)c3ccc(O)c4[nH]c(-c5ccc(F)cc5Cl)nc34)cc2)cc1 — which class?
// result label 0

// query Record Nc1ccc(CCNC(=O)c2ccc(O)c3[nH]c(-c4ccc(F)cc4)nc23)cc1 — which class?
// result label 1

// query Record O=C(NCCc1cccc(Br)c1)c1ccc(O)c2[nH]c(-c3ccc(Cl)cc3)nc12 — which class?
// result label 2

// query Record O=C(NCCc1cccc(Br)c1)c1ccc(O)c2[nH]c(-c3ccc(F)cc3)nc12 — which class?
// result label 1

// query Record Nc1ccc(CNC(=O)c2ccc(O)c3[nH]c(-c4ccc(Cl)cc4)nc23)cc1 — which class?
// result label 2

// query Record CC(C)c1nccn1CCCNC(=O)c1ccc(O)c2[nH]c(-c3ccc(Cl)cc3Cl)nc12 — which class?
// result label 1

// query Record CCCCNC(=O)c1ccc(O)c2[nH]c(-c3ccccc3)nc12 — which class?
// result label 2

###

Exercise: state measured pIC50 for each of the compounds provided.
molecular target: GSK-3β (Homo sapiens, UniProt P49841); experiment: Assay for GSK-3β inhibiting activity (32P-ATP, phospho-CREB peptide substrate, filter paper, CPM); type: biochemical; settings: GSK-3β inhibiting activity; 100 nM GSK-3β protein, 100 μM phospho-CREB peptide, 100 μM ATP, 30° C. for 1 hour; read-out: IC50
One number for each entry, as −log10 of the molar value.

Dear colleague, could you please provide pIC50 for the compounds listed below?
1. CCN1CCN(CC(=O)Nc2ccc(CCNC(=O)c3ccc(O)c4[nH]c(-c5ccc(F)cc5Cl)nc34)cc2)CC1 [Compound 157]
2. O=C(NCCc1ccc(N2C(=O)c3ccccc3C2=O)cc1)c1ccc(O)c2[nH]c(-c3ccccc3)nc12 [Compound 67]
3. CC(C)c1nccn1CCCNC(=O)c1ccc(O)c2[nH]c(-c3ccc(F)cc3F)nc12 [Compound 191]

// result
6.31
6.80
7.05

###

Molecular target: GSK-3β (Homo sapiens)
Assay: Assay for GSK-3β inhibiting activity (32P-ATP, phospho-CREB peptide substrate, filter paper, CPM)
Format: biochemical
Conditions: GSK-3β inhibiting activity; 100 nM GSK-3β protein, 100 μM phospho-CREB peptide, 100 μM ATP, 30° C. for 1 hour; read-out: IC50
Description: Assay for GSK-3β inhibiting activity […] The reaction was stopped by adding 5 μl of 5% phosphoric acid to 25 μl of the resulting solution. […] The filter paper was further washed 3 times and the enzymatic activity was determined by examining the extent of phospho-CREB peptide phosphorylation which is represented by the unit of count per minute (CPM), measured with a β-counter (Packard, USA). The GSK-3β inhibiting activity was then calculated in accordance with the following equation: […]
Exercise: state measured pIC50 for each of the compounds provided.
One number for each entry, as −log10 of the molar value.

Some entries whose results are on file:
>  <COMPOUND>
O=C(NCCc1ccc([N+](=O)[O-])cc1)c1ccc(O)c2[nH]c(-c3ccc(Cl)cc3)nc12 [Compound 72]

>  <pIC50>
6.92

$$$$
>  <COMPOUND>
CCN(CC)CC(=O)Nc1ccc(CCNC(=O)c2ccc(O)c3[nH]c(-c4ccc(F)cc4)nc23)cc1 [Compound 130]

>  <pIC50>
6.48

$$$$

Now examine the next entry.
// query Check the records and state pIC50 for Cc1cn(CCCNC(=O)c2ccc(O)c3[nH]c(-c4ccc(F)cc4F)nc23)cn1 [Compound 193]
// result 7.70

###

Molecular target: GSK-3β (Homo sapiens, UniProt P49841)
Assay: Assay for GSK-3β inhibiting activity (32P-ATP, phospho-CREB peptide substrate, filter paper, CPM)
Type: biochemical
Conditions: GSK-3β inhibiting activity; 100 nM GSK-3β protein, 100 μM phospho-CREB peptide, 100 μM ATP, 30° C. for 1 hour; read-out: IC50
Description: Assay for GSK-3β inhibiting activity […] The reaction was stopped by adding 5 μl of 5% phosphoric acid to 25 μl of the resulting solution. […] The filter paper was further washed 3 times and the enzymatic activity was determined by examining the extent of phospho-CREB peptide phosphorylation which is represented by the unit of count per minute (CPM), measured with a β-counter (Packard, USA). The GSK-3β inhibiting activity was then calculated in accordance with the following equation: […]
Exercise: state measured pIC50 for each of the compounds provided.
Answers are plain numbers, as −log10 of the molar value.

>  <COMPOUND STRUCTURE>
CC(=O)Nc1ccc(CCNC(=O)c2ccc(O)c3[nH]c(-c4ccc(F)cc4)nc23)cc1

>  <MEASURED ON>
GSK-3β (Homo sapiens, UniProt P49841)

>  <pIC50>
7.52

$$$$

Dear colleague, could you please provide pIC50 for the compounds listed below?
1. COc1ccc(CCNC(=O)c2ccc(O)c3[nH]c(-c4ccc(Cl)cc4Cl)nc23)cc1O
2. CN(C)CC(=O)Nc1ccc(CCNC(=O)c2ccc(O)c3[nH]c(-c4ccc(Cl)cc4)nc23)cc1
3. Cc1ccc(S(=O)(=O)Nc2ccc(CCNC(=O)c3ccc(O)c4nc(-c5ccc(F)cc5)[nH]c34)cc2)cc1
4. CN1CCN(CC(=O)Nc2ccc(CCNC(=O)c3ccc(O)c4[nH]c(-c5ccc(F)cc5)nc34)cc2)CC1
5. O=C(NCCCn1ccnc1)c1ccc(O)c2[nH]c(-c3ccc(Cl)cc3Cl)nc12
6. CCN1CCN(CC(=O)Nc2ccc(CCNC(=O)c3ccc(O)c4[nH]c(-c5ccc(F)cc5)nc34)cc2)CC1
7. CS(=O)(=O)Nc1ccc(NCCNC(=O)c2ccc(O)c3[nH]c(-c4ccc(F)cc4)nc23)nc1
8. CCCCC(=O)Nc1ccc(CCNC(=O)c2ccc(O)c3[nH]c(-c4ccc(F)cc4Cl)nc23)cc1

// result
1. 6.64
2. 6.66
3. 7.59
4. 6.74
5. 7.40
6. 6.82
7. 7.30
8. 6.85

Dear colleague, could you please provide pIC50 for the compounds listed below?
1. CN(C)CC(=O)Nc1ccc(CCNC(=O)c2ccc(O)c3[nH]c(-c4ccc(F)cc4Cl)nc23)cc1
2. Cc1ccc(S(=O)(=O)NCCc2ccc(NC(=O)c3ccc(O)c4[nH]c(-c5ccc(Cl)cc5Cl)nc34)cc2)cc1
3. CCS(=O)(=O)Nc1ccc(CCNC(=O)c2ccc(O)c3[nH]c(-c4ccc(Cl)cc4)nc23)cc1
4. CS(=O)(=O)Nc1ccc(NCCNC(=O)c2ccc(O)c3[nH]c(-c4ccc(F)cc4Cl)nc23)nc1

// result
1. 6.64
2. 6.13
3. 7.15
4. 6.62

Dear colleague, could you please provide pIC50 for the compounds listed below?
1. Cc1ccc(S(=O)(=O)NCCc2ccc(NC(=O)c3ccc(O)c4[nH]c(-c5ccc(Cl)cc5)nc34)cc2)cc1
2. O=C(NCCCN1CCCC1=O)c1ccc(O)c2[nH]c(-c3ccccc3)nc12

// result
1. 6.15
2. 6.08

###

Exercise: state measured IC50 for each of the compounds provided.
target: GSK-3β (Homo sapiens); assay: Assay for GSK-3β inhibiting activity (32P-ATP, phospho-CREB peptide substrate, filter paper, CPM); type: biochemical; settings: GSK-3β inhibiting activity; 100 nM GSK-3β protein, 100 μM phospho-CREB peptide, 100 μM ATP, 30° C. for 1 hour; read-out: IC50

Some entries whose results are on file:
>  <COMPOUND>
O=C(NCCCn1cnc(Cl)c1Cl)c1ccc(O)c2[nH]c(-c3ccc(Cl)cc3)nc12

>  <IC50>
40 nM

$$$$
>  <COMPOUND>
O=C(Nc1ccc(CCO)cc1)c1ccc(O)c2[nH]c(-c3ccc(Cl)cc3Cl)nc12

>  <IC50>
> 1000 nM

$$$$
>  <COMPOUND>
COc1ccc(CCNC(=O)c2ccc(O)c3[nH]c(-c4ccc(Cl)cc4)nc23)cc1O

>  <IC50>
33 nM

$$$$
>  <COMPOUND>
O=C(NCCc1c[nH]cn1)c1ccc(O)c2[nH]c(-c3ccc(Cl)cc3)nc12

>  <IC50>
> 1000 nM

$$$$
>  <COMPOUND>
CS(=O)(=O)Nc1ccc(CCNC(=O)c2ccc(O)c3[nH]c(-c4ccc(F)c(Cl)c4)nc23)cc1

>  <IC50>
90 nM

$$$$

Dear colleague, could you please provide IC50 for the compounds listed below?
1. CC(=O)Nc1ccc(CCNC(=O)c2ccc(O)c3[nH]c(-c4ccc(Cl)cc4Cl)nc23)cc1
2. O=C(NCCCn1cnc(Cl)c1Cl)c1ccc(O)c2[nH]c(-c3ccc(F)cc3F)nc12 [Compound 194]

// result
40 nM
4 nM

// query Check the records and state IC50 for O=C(NCCCn1ccnc1)c1ccc(O)c2[nH]c(-c3ccccc3)nc12
// result 80 nM
